Reference for the values: patent US20200239537A1

- TESTED_TARGET: T1, wild-type rat apelin receptor tagged at its C-terminus with EGFP (rat, UniProt Q9JHG3 1-377)
- T1 construct: whole, on cells; Used as crude membrane preparations from CHO cells stably expressing the receptor; also called wild-type rat apelin receptor-EGFP; not shown: EGFP tag at the C-terminus
- T1 sequence (looked up): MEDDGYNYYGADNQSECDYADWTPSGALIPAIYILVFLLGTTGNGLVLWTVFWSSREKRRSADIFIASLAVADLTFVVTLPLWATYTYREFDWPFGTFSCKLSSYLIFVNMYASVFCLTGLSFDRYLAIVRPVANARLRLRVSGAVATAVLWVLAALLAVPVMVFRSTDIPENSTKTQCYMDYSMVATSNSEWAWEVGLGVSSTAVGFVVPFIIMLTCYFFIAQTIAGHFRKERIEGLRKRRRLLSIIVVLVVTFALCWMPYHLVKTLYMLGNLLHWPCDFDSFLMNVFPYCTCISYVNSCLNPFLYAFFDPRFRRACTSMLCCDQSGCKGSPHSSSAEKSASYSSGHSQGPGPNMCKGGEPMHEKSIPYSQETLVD
- ASSAY_INFO: displacement of 0.2 nM [125I]-pyr-1-apelin-13; membranes of CHO cells expressing rat apelin receptor-EGFP
*1 amine or outer side, *2 acyl side, *3 side chain or, on linkers, in order; H or OH if unused. Where no end group is shown, it is not given here. [ ]: non-standard residue; d: D form. azaArg = aza-arginine, alpha-carbon replaced by nitrogen, N=C(N)NCCCN(N[*:1])C(=O)[*:2]; Phe(4-Br) = N[C@@H](Cc1ccc(Br)cc1)C(=O)O; azaLeu = CC(C)CN(N[*:1])C(=O)[*:2]; αMeR = C[C@](N)(CCCNC(=N)N)C(=O)O; NMeL = CN[C@@H](CC(C)C)C(=O)O; αMeL = CC(C)C[C@](C)(N)C(=O)O; Nle = CCCC[C@H](N)C(=O)O; Aib = CC(C)(N)C(=O)O
READOUT_LABEL: times less potent than native 2

IN: What measured times less potent than native 2 goes with KFRRQRPR[azaLeu]SHKGP[Nle][Aib][Phe(4-Br)] [azaLeu9 apelin-17 A2 peptide (19)] ?
OUT: ~3 fold

IN: For KFRRQRPR[dL]SHKGP[Nle][Aib][Phe(4-Br)] [D-Leu9-apelin-17 A2 (9)] , what is its reported times less potent than native 2?
OUT: ~3 fold

IN: // times less potent than native 2 lookup, key: KFRRQRP[αMeR]LSHKGP[Nle][Aib][Phe(4-Br)] (also called α-MeArc8-apelin-17 A2) [α-MeArg8-apelin-17 A2 (13)]
OUT: ~3 fold

IN: Which times less potent than native 2 reading was recorded for the binder KFRRQRPR[αMeL]SHKGP[Nle][Aib][Phe(4-Br)] [α-MeLeu9-apelin-17 A2 (15)] ?
OUT: ~3 fold

IN: Which measured times less potent than native 2 value corresponds to KFRRQRP[azaArg]LSHKGP[Nle][Aib][Phe(4-Br)] [azaArg8-apelin-17 A2 (17)] ?
OUT: ~3 fold

IN: Which times less potent than native 2 value belongs to KFRRQRPR[NMeL]SHKGP[Nle][Aib][Phe(4-Br)] (also called Apelin-NMe17A2; NMeLeu-17A2) [N-MeLeu9-apelin-17 A2 (11)] ?
OUT: ~3 fold
